- TARGET_SYSTEM: T1, O3
- T1 chain: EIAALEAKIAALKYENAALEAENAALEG
- TEST_DETAILS: two-hybrid library CC0;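 note: natural log of median RNA to DNA barcode read ratio; higher means stronger binding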
- CONDITIONS_USED: mean of both orientations
READOUT_KIND: interaction score
Answers are plain numbers.

// each binder listed below needs its interaction score
1. EIAALEAENAALEYKIAALKAENAALEG [O15]
2. ENAALEAEIAALEYENAALEAKIAALKG [O14]
3. KNAALKAENAALEYEIAALEAEIAALEG [O1]
4. EIAALEAKIAALKYKNAALKAKNAALKG [O12]
5. KIAALKAKNAALKYEIAALEAKNAALKG [O16]
6. KNAALKAKIAALKYKNAALKAEIAALEG [O13]

// result
-2.8
-2.51
-2.76
0.0458
-2.69
-2.81

// query Requested read-out: interaction score. Entry: ENAALEAKNAALKYKIAALKAKIAALKG [O2]
// result -2.68
